Cited source: patent US3972872A

ENDPOINT: MIC (µg/mL)
The reply should be a number in µg/mL, with the unit left off.

Tested on Proteus vulgaris A059, the item CC1(C)S[C@@H]2[C@H](NC(=O)[C@H](NC(=O)C3CCC(NC(=N)N)CC3)c3ccccc3)C(=O)N2[C@H]1C(=O)O (stereo partly shown) [NH--C(NH)NH2 [3rd of 4], R=H] showed MIC equal to 50

Tested on Proteus vulgaris A059, the item CC1(C)S[C@@H]2[C@H](NC(=O)[C@H](NC(=O)NC(=N)N)c3ccccc3)C(=O)N2[C@H]1C(=O)O [B] showed MIC equal to 1.56

Tested on Proteus vulgaris A059, the item CC1(C)S[C@@H]2[C@H](NC(=O)[C@H](NC(=O)CNC(=N)N)c3ccccc3)C(=O)N2[C@H]1C(=O)O [A] showed MIC equal to 1.56

Tested on Proteus vulgaris A059, the item CC1(C)S[C@@H]2[C@H](NC(=O)[C@H](NC(=O)Cc3ccc(NC(=N)N)cc3)c3ccccc3)C(=O)N2[C@H]1C(=O)O [NH--C(NH)NH2 [4th of 4], R=H] showed MIC equal to 12.5

Tested on Proteus vulgaris A059, the item CC1(C)S[C@@H]2[C@H](NC(=O)[C@H](N)c3ccccc3)C(=O)N2[C@H]1C(=O)O [D-α-aminobenzylpenicillin, reference compound] showed MIC equal to 6

Tested on Proteus vulgaris A059, the item CC1(C)S[C@@H]2[C@H](NC(=O)[C@H](NC(=O)C3CCCN(C(=N)N)C3)c3ccccc3)C(=O)N2[C@H]1C(=O)O (stereo partly shown) [C(NH)NH2, R=H] showed MIC equal to 6.25

Tested on Proteus vulgaris A059, the item CC1(C)S[C@@H]2[C@H](NC(=O)[C@H](NC(=O)c3ccc(NC(=N)N)cc3)c3ccccc3)C(=O)N2[C@H]1C(=O)O [NH--C(NH)NH2 [1st of 4], R=H] showed MIC equal to 6.25

---

Provide the recorded MIC for the entries that follow.
Don't forget the unit after the number, please.

Tested on Proteus rettgeri B006, the item CC1(C)S[C@@H]2[C@H](NC(=O)[C@H](NC(=O)c3ccc(NC(=N)N)cc3)c3ccccc3)C(=O)N2[C@H]1C(=O)O [NH--C(NH)NH2 [1st of 4], R=H] showed MIC equal to 25 µg/mL

Tested on Proteus rettgeri B006, the item CC1(C)S[C@@H]2[C@H](NC(=O)[C@H](NC(=O)c3cccc(NC(=N)N)c3)c3ccccc3)C(=O)N2[C@H]1C(=O)O [NH--C(NH)NH2 [2nd of 4], R=H] showed MIC equal to 12.5 µg/mL

Tested on Proteus rettgeri B006, the item CN(CC(=O)N[C@@H](C(=O)N[C@@H]1C(=O)N2[C@@H]1SC(C)(C)[C@@H]2C(=O)O)c1ccccc1)C(=N)N [CH2 N(CH3)--C(NH)NH2, R=H] showed MIC equal to 100 µg/mL

Tested on Proteus rettgeri B006, the item CC1(C)S[C@@H]2[C@H](NC(=O)[C@H](NC(=O)CNC3=NCCN3)c3ccccc3)C(=O)N2[C@H]1C(=O)O [CH2 NH--.angle..vertline., R=H] showed MIC equal to 100 µg/mL

Tested on Proteus rettgeri B006, the item CC1(C)S[C@@H]2[C@H](NC(=O)[C@H](NC(=O)C3CCC(NC(=N)N)CC3)c3ccccc3)C(=O)N2[C@H]1C(=O)O (stereo partly shown) [NH--C(NH)NH2 [3rd of 4], R=H] showed MIC equal to 50 µg/mL

Tested on Proteus rettgeri B006, the item CC1(C)S[C@@H]2[C@H](NC(=O)[C@H](NC(=O)CNC(=N)N)c3ccccc3)C(=O)N2[C@H]1C(=O)O [A] showed MIC equal to 12.5 µg/mL

Tested on Proteus rettgeri B006, the item CC1(C)S[C@@H]2[C@H](NC(=O)[C@H](NC(=O)CCNC(=N)N)c3ccccc3)C(=O)N2[C@H]1C(=O)O [CH2 CH2 NH--C(NH)NH2, R=H] showed MIC equal to 50 µg/mL
